Measured MIC E. coli UB1005 by item
# Tested on: E. coli UB1005
# Type: cell-based, Escherichia coli
# RUN_PARAMETERS: UB1005, 24 h
Where no end group is shown, it is not given here.
Your answer is read as µM, so omit the unit and give the number.

Past entries and their recorded results:
QLVPLAIKIYRAWKRR-NH2 [dCATH(5–20)] | 4
KRFWQLVPLAIKIYRA-NH2 [dCATH(1–16)] | 4
QLVPLAIKIYRA-NH2 [dCATH(5–16)] | 128
KRFAQLVPLAIKIYRAAKRR-NH2 [dCATH-AA] | 16
KRFAQLVPLAIKIYRA-NH2 [dCATH(1–16)-4A] | 32

Moving on to the next substance.
Please report the recorded MIC E. coli UB1005 for KRFWQLVPLAIKIYRAW-NH2 [dCATH(1–17)] .
1

* * *

# Test system: Human red blood cells (hRBCs)
# Format: cell-based
# RUN_PARAMETERS: red cells of human, 1 h
Where no end group is shown, it is not given here.
OBSERVABLE: MHC (minimum hemolytic concentration) (µM)
Provide the reading as a plain figure in µM.

Example entries begin here.
KRFWQLVPLAIKIYRAWKRR-NH2 [dCATH] | 4
KRFWQLVPLAIKIYRAW-NH2 [dCATH(1–17)] | 8
KRFWQLVPLAIKIYRAWK-NH2 [dCATH(1–18)] | 8
WQLVPLAIKIYRAWKRR-NH2 [dCATH(4–20)] | 16
QLVPLAIKIYRAWKRR-NH2 [dCATH(5–20)] | 128

Pending substance:
Would you kindly share the measured MHC (minimum hemolytic concentration) for FWQLVPLAIKIYRAWKRR-NH2 [dCATH(3–20)] ?
4

* * *

The following substances are listed with their measured MIC E. coli ATCC 25922 values.
# Test system: E. coli ATCC 25922
# Type: cell-based, Escherichia coli
# RUN_PARAMETERS: ATCC 25922, 24 h
Where no end group is shown, it is not given here.
Give the value, in units of µM, as a plain number.

KRFAQLVPLAIKIYRAAKRR-NH2 [dCATH-AA] | 32
KRFWQLVPLAIKIYRA-NH2 [dCATH(1–16)] | 2
KRFWQLVPLAIKIYRAWKRR-NH2 [dCATH] | 2

What value of measured MIC E. coli ATCC 25922 is listed for QLVPLAIKIYRA-NH2 [dCATH(5–16)] ?
64

Moving on to the next substance: KRFWQLVPLAIKIYRAWK-NH2 [dCATH(1–18)]
1

Same read-out for QLVPLAIKIYRAAKRR-NH2 [dCATH(5–20)-17A] ?
64

For KRFWQLVPLAIKIYRAW-NH2 [dCATH(1–17)] then?
1

Item: QLVPLAIKIYRAWKRR-NH2 [dCATH(5–20)]
1

Thanks! And WQLVPLAIKIYRAWKRR-NH2 [dCATH(4–20)] ?
1

Moving on to FWQLVPLAIKIYRAWKRR-NH2 [dCATH(3–20)]
1

Same question, KRFAQLVPLAIKIYRA-NH2 [dCATH(1–16)-4A] this time
16

* * *

# System: E. coli UB1005
# Format: cell-based, Escherichia coli
# RUN_PARAMETERS: UB1005, 24 h
Where no end group is shown, it is not given here.
OBSERVABLE: MIC E. coli UB1005
For clarity, give the value followed by its unit.

Completed entries (count: 3):
KRFWQLVPLAIKIYRAWK-NH2 [dCATH(1–18)] | 2 µM
FWQLVPLAIKIYRAWKRR-NH2 [dCATH(3–20)] | 2 µM
WQLVPLAIKIYRAWKRR-NH2 [dCATH(4–20)] | 4 µM

Please examine the following record next.
Given the substance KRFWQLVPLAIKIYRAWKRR-NH2 [dCATH] , what is its reported MIC E. coli UB1005?
2 µM

All values here come from paper PMC7326067.
